Substrate: O=C(O)C(=O)[C@@H](O)[C@H](O)C(=O)CO
TEST_DETAILS: purified protein, by the assay type
Type: biochemical, Corynebacterium sp.
TEST_CONDITIONS: other: Kb = Michaelis constant for 2,5-diketo-D-gluconic acid, cofactor NADH, pH 7.0, 25° C

PROTEIN: 2,5-diketo-D-gluconic acid reductase A (Corynebacterium sp., wild type SEQ ID NO:1) variant R238E (Corynebacterium sp. ATCC 31090; R238E) (protein, GroES fragment (N); made in house; host or cells: E. coli JM109) MTVPSIVLNDGNSIPQLGYGVFKVPPADTQRAVEEALEVGYRHIDTAAIYGNEEGVGAAIAASGIARDDLFITTKLWNDRHDGDEPAAAIAESLAKLALDQVDLYLVHWPTPAADNYVHAWEKMIELRAAGLTRSIGVSNHLVPHLERIVAATGVVPAVNQIELHPAYQQREITDWAAAHDVKIESWGPLGQGKYDLFGAEPVTAAAAAHGKTPAQAVLRWHLQKGFVVFPKSVRREELEENLDVFDFDLTDTEIAAIDAMDPGDGSGRVSAHPDEVD
VALUE_UNITS: min^−1/mm^−1
kcat/Km: 1.49
